Entries annotated with measured pIC50
- System: SIRPα signalling induced by Raji cells
- Measurement description: Assay B: SIRPα signalling assay using Raji cells
- Format: cell-based, human
- Protocol conditions: Homo sapiens, compounds of the invention, Table 4, read-out: Inhibition of SIRα signalling induced by Raji cells: IC50
The value called pIC50 is obtained by taking minus log10 of the concentration in mol/L.

Example entries begin here.
Cc1cc(-c2cccc(C#N)c2N2CCC(F)(c3nncn3C)CC2)cnc1F: 7.20
Cn1cnnc1C1CCN(c2c(C#N)cccc2-c2cnc3nn(C)c(C(F)(F)F)c3c2)CC1: 7.06
Cn1cnnc1C1(F)CCN(c2c(C#N)cccc2-c2cnc3nc(-c4cccc(Cl)c4)ccn23)CC1: 7.04
Cn1nc2cc(-c3cccc(C#N)c3N3CCC(c4nncn4C)CC3)cnc2n1: 6.85
Cn1cnnc1C1(C)CCN(c2c(C#N)cccc2-c2ccc(F)nc2)CC1: 7.00

Read the next record carefully.
Bench note: what pIC50 did "Cn1cnnc1C1(F)CCN(c2c(C#N)cccc2-c2cnn3ncccc23)CC1" show?
7.10

###

- System under test: UniProt Q9NXS2
- Measurement description: Assay A: biochemical QPCTL activity assay (MALDI-TOF MS)
- Protocol conditions: compounds of the invention, Table 2; read-out: Inhibition of QPCTL: IC50
Quantity: IC50
# output: number + unit

Cn1cnnc1C1(F)CCN(c2c(C#N)cccc2-c2cnc3nn(Cc4ccccc4)nc3c2)CC1: 2 nM
Cn1cnnc1C1CCN(c2c(C#N)cccc2-c2cncc(C(N)=O)c2)CC1: 3 nM

Bench note: what IC50 did "Cn1cnnc1C1(F)CCN(c2c(C#N)cccc2-c2cnc3nn(C(C)(C)C)c(Cl)c3c2)CC1" show?
1 nM

###

- System under test: QPCTL (Homo sapiens (Human), UniProt Q9NXS2)
- Sequence (Q9NXS2 whole entry): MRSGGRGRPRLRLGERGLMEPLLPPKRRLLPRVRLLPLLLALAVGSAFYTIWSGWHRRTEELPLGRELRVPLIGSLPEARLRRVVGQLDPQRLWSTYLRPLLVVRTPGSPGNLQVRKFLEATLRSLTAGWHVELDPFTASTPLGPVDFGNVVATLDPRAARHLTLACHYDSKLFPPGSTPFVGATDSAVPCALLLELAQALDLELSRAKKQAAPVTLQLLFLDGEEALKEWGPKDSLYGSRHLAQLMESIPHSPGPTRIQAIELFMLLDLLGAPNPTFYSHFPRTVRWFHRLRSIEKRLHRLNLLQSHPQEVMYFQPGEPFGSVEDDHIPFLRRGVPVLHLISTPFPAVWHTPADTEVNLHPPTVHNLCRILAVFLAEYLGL
- Measurement description: Assay A: biochemical QPCTL activity assay (MALDI-TOF MS)
- Protocol conditions: compounds of the invention, Table 2; read-out: Inhibition of QPCTL: IC50
Catalogue of IC50 values
Write the figure, then the unit, nothing else.

Cn1cnnc1C1CCN(c2c(C#N)cccc2-c2cnc3n[nH]cc3c2)CC1 [compound 26]: 5 nM
Cn1cnnc1C1(C)CCN(c2c(C#N)cccc2-c2ccc(F)nc2)CC1 [compound 66]: 3 nM
COc1cc(-c2cccc(C#N)c2N2CCC(F)(c3nncn3C)CC2)cnc1F [compound 53]: 1 nM
Cn1cnnc1C1(F)CCN(c2c(C#N)cccc2-c2cnc3nc(C(C)(C)C)nn3c2)CC1 [compound 72]: 1 nM

Consider the additional compound presented here.
Which measured IC50 value corresponds to Cc1cc(-c2cccc(C#N)c2N2CCC(F)(c3nncn3C)CC2)cnc1F [compound 82] ?
2 nM
